Test system: A/Cambodia/0371/2007 (H1N1)
methodSummary: microbe, parasite or virus in culture
Assay type: cell-based
experimentalConditions: Influenza A virus, MDCK, read-out: Cell Protection Assay EC50 ± SD
reportedEndpoint: EC50 (nM)
Number in nM, nothing else.

Recorded EC50 for O=C(O)[C@H]1C2CCC(CC2)C1Nc1nc(-c2c[nH]c3ncc(F)cc23)ncc1F (stereo partly shown) , please?
0.61

---

Tested on: A/New York/18/2009 (H1N1)
methodSummary: microbe, parasite or virus in culture
Type: cell-based
experimentalConditions: Influenza A virus, H1N1, MDCK; read-out: Cell Protection Assay EC50 ± SD
reportedEndpoint: EC50 (pM)
Write the number in pM without appending the unit.

Given the entry O=C(O)[C@H]1C2CCC(CC2)C1Nc1nc(-c2c[nH]c3ncc(F)cc23)ncc1F (stereo partly shown) , report its measured EC50.
590
